System: A498 renal
Test Details: NCI tumour cell line growth inhibition, 48 h
# TGI listing for each entry below

Record excerpt, results attached:
Compound	TGI
CCC(C)OC(=O)/C(Br)=C1/OC(=O)c2ccccc2-c2ccccc21 (stereo unspecified)	> 100 µM
Clc1ccc(C2C3COc4ccccc4C3=NN2c2ccccc2)cc1 (stereo unspecified)	> 100 µM
COc1ccc(-c2nn(-c3ccc(NC(=O)c4ccc(Cl)c(Cl)c4)cc3)cc2-c2ccncc2)cc1Cl	4.52 µM
Nc1ncnc2c1ncn2[C@@H]1C[C@@H]1CO	> 100 µM
NC(=O)C(C(N)=O)=C(O)C(=O)/C=C(\O)c1ccccc1	> 100 µM
C/C(Cc1ccccc1)=N\NC(N)=S	> 100 µM
Cc1c(N=Nc2ccc(Cl)cc2)c(-c2ccccc2)n(C2OC(CO)C(O)C(O)C2O)c(=S)c1C#N (stereo unspecified)	21.5 µM
CCCNC(=S)NNC(=O)CSc1nc(-c2ccccc2)c(-c2ccccc2)[nH]1	> 100 µM
CN1C2CCC1CC(=CCOC(c1ccc(F)cc1)c1ccc(F)cc1)C2	28.7 µM
Cc1[nH]nc(C(F)(F)F)c1N=NN1CCOCC1	32.6 µM

// returns reported TGI for input NC(=O)C12CC3CC(CC(F)(C3)C1)C2
> 100 µM

###

# TGI listing for each entry below
Tested on: SF-539 CNS
Test Details: NCI tumour cell line growth inhibition, 48 h

Record excerpt, results attached:
Molecule	TGI
CCC(C)OC(=O)/C(Br)=C1/OC(=O)c2ccccc2-c2ccccc21 (stereo unspecified)	52.2 µM
CN(C)CCCN1CCC2(CCC(C(C)(C)C)CC2)CC1	3.89 µM
COc1cccc2c1C(=O)c1c(O)c3c(c(O)c1C2=O)C[C@](O)(C(=O)CO)C[C@H]3O[C@@H]1C[C@@H](NC(=O)CCCCCN(C)C2(c3ccc(F)cc3)CC3CCC2C3)[C@H](O)[C@@H](C)O1 (stereo partly specified)	10.3 µM

// returns reported TGI for input COc1ccc(CC2NCCc3c2[nH]c2ccccc32)cc1 (stereo unspecified)
> 100 µM

// returns reported TGI for input COc1ccc(C(OCC2OC(n3cc(C)c(=O)[nH]c3=O)CC2n2cc(Cn3cc(Cl)c(=O)[nH]c3=O)nn2)(c2ccccc2)c2ccccc2)cc1 (stereo unspecified)
> 100 µM

// returns reported TGI for input OC1C#CCSCC#C/C=C\1 (stereo unspecified)
> 100 µM

// returns reported TGI for input O=C(/C=C/c1cccc2ccccc12)c1ccccc1Cl
31.9 µM

// returns reported TGI for input O=c1c(/C=C/c2c(O)ccc3ccccc23)nnc2sc(-c3cccc(Br)c3)nn12
> 100 µM

// returns reported TGI for input CCCCCCc1cc2cc(C(=O)Nc3ccccc3)c(=N)oc2cc1O
> 48.6 µM

// returns reported TGI for input Cc1c2c(C#N)nccc2c(C)c2c1c1ccccc1n2Cc1ccccc1
> 100 µM

// returns reported TGI for input Cc1ncc(C(=O)Nc2ccc(CN3CCN(C)CC3)c(C(F)(F)F)c2)cc1C#Cc1cnc(N)c2ccncc12
1.79 µM

// returns reported TGI for input COC(=O)C(Cc1nc2ccc(Cl)cc2[nH]c1=O)/C(=N\N)C(=O)Nc1cc(C)c(Cl)cc1S(=O)(=O)O (stereo unspecified)
> 100 µM

// returns reported TGI for input CN1CCOC(c2ccccc2)O1 (stereo unspecified)
> 100 µM
